Where these numbers come from: PubChem BioAssay (EPA / NIEHS)

experiment: ATG_PXRE_CIS: Attagene CIS-FACTORIAL HepG2 Assay for human Pregnane X Receptor Element (PXRE) (AID 2282957); settings: HepG2 Attagene CIS-FACTORIAL PXRE reporter, mRNA; actives raise or lower the signal
The source made the active and inactive calls. How the source made its calls: active means hit-call score of the fitted dose curve at least 0.9, where 1 is the maximum; inactive means score below 0.9.
Give your call using only these classes: active, inactive

Some solved entries appear below for comparison.
Please share the test call associated with CCCCC(CC)COC(=O)CS (stereo not given) .
active

Repeat with COc1cccc(OC)c1C(=O)O
inactive

Repeat with CCOC(=O)c1ccccc1
active

Repeat with C=CN1CCCCCC1=O
inactive

Repeat with CCCCCC[C@@H](O)C/C=C\CCCCCCCC(=O)O
inactive

Repeat with Nc1ccc(S(=O)(=O)Nc2cnc3ccccc3n2)cc1
inactive

Repeat with C[C@H]1C[C@H]2[C@@H]3CCC4=CC(=O)C=C[C@]4(C)[C@@]3(F)[C@@H](O)C[C@]2(C)[C@@]1(O)C(=O)CO
active

Repeat with CC1=CCCC(C)(C)C12CCC(C)O2 (stereo not given)
active

Now consider the entry below.
Please share the test call associated with O=C1CCCCCCCCCCCCCC1 .
active
